The reported measurements were obtained from patent US5886178A.

Biological target: COX I (Homo sapiens, UniProt P23219)
Sequence (P23219 24-599): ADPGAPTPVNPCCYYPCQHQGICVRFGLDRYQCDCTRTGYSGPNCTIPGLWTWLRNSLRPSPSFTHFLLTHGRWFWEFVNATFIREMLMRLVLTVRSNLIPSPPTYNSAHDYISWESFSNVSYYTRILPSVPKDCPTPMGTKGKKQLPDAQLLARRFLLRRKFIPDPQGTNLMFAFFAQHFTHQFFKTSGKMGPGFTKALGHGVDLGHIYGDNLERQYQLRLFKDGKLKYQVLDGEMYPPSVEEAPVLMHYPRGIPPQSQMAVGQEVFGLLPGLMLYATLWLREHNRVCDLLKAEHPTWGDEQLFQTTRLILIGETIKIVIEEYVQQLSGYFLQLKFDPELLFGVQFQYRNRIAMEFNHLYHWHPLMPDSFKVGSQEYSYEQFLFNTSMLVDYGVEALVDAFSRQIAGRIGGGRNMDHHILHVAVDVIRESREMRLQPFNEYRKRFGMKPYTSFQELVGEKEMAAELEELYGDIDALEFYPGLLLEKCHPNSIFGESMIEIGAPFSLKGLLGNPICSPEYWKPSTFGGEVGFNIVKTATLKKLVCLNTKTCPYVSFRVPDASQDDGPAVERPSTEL
Experiment: Inhibition of COX I in vitro, partially purified enzyme, radiometric assay
Format: biochemical
Set-up: made in house
Conditions: 20 micromolar arachidonic acid
Reported pIC50 values for the following molecules.
Units for pIC50: none; it is -log10 of a concentration expressed in mol/L.

                            chemical_smiles  measurement_kind  reading
0  COc1ccc(C(=O)c2cccc(Cc3ccc(=O)[nH]n3)c2Cl)cc1             pIC50     4.24
1  O=C(c1ccc(F)c(Cc2ccc(=O)[nH]n2)c1)c1c(Cl)cc(Cl)cc1Cl             pIC50     3.52

Next, consider the following molecule.
What value of measured pIC50 is listed for O=C(c1cccc(Cc2ccc(=O)[nH]n2)c1)c1c(Cl)cc(Cl)cc1Cl ?
3.13
